target: MOD-1 (Caenorhabditis elegans, UniProt Q9GQ00); assay: whole-cell patch clamp in BOSC-23 cells, inhibition of […] 5-HT currents after […] s preincubation; format: cell-based
Sequence (Q9GQ00 21-489): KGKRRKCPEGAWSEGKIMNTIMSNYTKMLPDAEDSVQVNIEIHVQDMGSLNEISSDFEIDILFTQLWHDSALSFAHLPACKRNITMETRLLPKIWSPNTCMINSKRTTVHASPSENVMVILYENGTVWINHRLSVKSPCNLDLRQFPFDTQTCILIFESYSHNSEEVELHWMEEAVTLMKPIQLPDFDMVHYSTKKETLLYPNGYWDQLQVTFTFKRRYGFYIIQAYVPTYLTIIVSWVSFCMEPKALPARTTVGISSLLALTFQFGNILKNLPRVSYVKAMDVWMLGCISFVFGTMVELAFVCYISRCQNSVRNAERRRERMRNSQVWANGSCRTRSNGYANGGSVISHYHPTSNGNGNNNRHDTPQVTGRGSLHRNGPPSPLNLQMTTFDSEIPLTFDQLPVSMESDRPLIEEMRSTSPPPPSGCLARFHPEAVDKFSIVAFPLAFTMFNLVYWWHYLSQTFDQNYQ
property measured: IC50 (µM)
Your answer is read as µM, so omit the unit and give the number.

Determine its reported IC50: NCc1cc(=O)[nH]o1
249

----------
target: MOD-1 (Caenorhabditis elegans, UniProt Q9GQ00); assay: whole-cell patch clamp of homomeric MOD-1 expressed in BOSC-23 cells, agonist concentration-response (efficacy about […])
property measured: EC50 (µM)
Your answer is read as µM, so omit the unit and give the number.

Determine its reported EC50: NCCc1c[nH]c2ccccc12 [Tryp, tryptamine]
47

----------
target: MOD-1 (Caenorhabditis elegans, UniProt Q9GQ00); test: cell-based
property measured: pIC50
On this scale, pIC50 is minus log10 of a concentration expressed in M (mol/L).

Determine its reported pIC50: C1CNCCN1 [PZE, piperazine]
3.95

// data source = paper PMC9471462
